test.target: GST-tagged unphosphorylated CDK1 (Homo sapiens, UniProt P06493)
Construct: Full-length human CDK1 was expressed in insect cells either untagged (from pVL1393) or as a 3C-protease cleavable GST fusion
Sequence (P06493 whole entry, the tested form may be a part): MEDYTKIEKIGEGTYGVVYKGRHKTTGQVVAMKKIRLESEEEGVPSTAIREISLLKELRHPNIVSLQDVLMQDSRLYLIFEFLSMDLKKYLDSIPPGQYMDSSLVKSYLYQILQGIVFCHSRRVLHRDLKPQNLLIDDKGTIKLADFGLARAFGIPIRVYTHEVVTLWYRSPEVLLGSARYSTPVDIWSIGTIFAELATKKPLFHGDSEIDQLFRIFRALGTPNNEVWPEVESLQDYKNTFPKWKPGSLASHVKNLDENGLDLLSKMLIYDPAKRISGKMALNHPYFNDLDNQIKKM
test.summary: biochemical
protocol.conditions: unphosphorylated monomeric GST-CDK1; 20°C; duplicate, ± SD; read-out: SPR Kd CDK1
readout: pKd
pKd here: minus log base 10 of the concentration, concentration in moles per litre.

input: Consider the molecule CCn1cnc2c(Nc3cccc(Cl)c3)nc(NC3CCCCC3N)nc21 (stereo not shown) [CGP74514A] and give its measured pKd.
output: 4.87

====

test.target: CDK2-cyclin A (Homo sapiens, UniProt P24941)
test.summary: biochemical
Format: binding
Design: Human CDK2 (encompassing full length residues 1-298); GST (N, cleaved yes); made in house; host or cells: E. coli (CDK2 and cyclin A2)
protocol.conditions: phosphorylated CDK2-cyclin A complex; 30°C; n = 2, ± SD; read-out: ITC Kd CDK2A
readout: Kd (nM)
Report the value in nM with no unit label.

input: Could you tell me which Kd is on file for CCn1cnc2c(Nc3cccc(Cl)c3)nc(NC3CCCCC3N)nc21 (stereo not shown) [CGP74514A] ?
output: 224
